# study target: T1, extracellular domain of human BCMA (human, UniProt Q02223 1-54)
# T1 construct: amine-linked to Octet AR2G tips; also called hsBCMA; BCMA (human)
# T1 sequence: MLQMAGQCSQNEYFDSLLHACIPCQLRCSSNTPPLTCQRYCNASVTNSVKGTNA
# assay: Octet BLI; Fab 200 nM
pKd: −log10 of the molar value.
# maps each entry to its pKd
readout type: pKd

• AB200-(2Vk30)_R2-VH-v31 (Fab, V domains shown) VH: QVQLVQSGAEVKKPGSSVKVSCKASGGTFSNYWIHWVRQAPGQGLEWMGATYRSQSDTNYNQKFKSRVTITADKSTSTAYMELSSLRSEDTAVYYCARGAVYHGYDVIDNWGQGTLVTVSS VL: DIQMTQSPSSLSASVGDRVTITCRASQSISSYLNWYQQKPGKAPKLLIYATSNLQIGVPSRFSGSGSGTDFTLTISSLQPEDFATYYCQQYRRIPWTFGQGTKLEIKR = 7.89
• AB200-(2Vk30)_R2-VH-v30 (Fab, V domains shown) VH: QVQLVQSGAEVKKPGSSVKVSCKASGGTFSNYWIHWVRQAPGQGLEWMGATYRSHSDTNYAQKFKSRVTITADKSTSTAYMELSSLRSEDTAVYYCARGAIYHGYDVIENWGQGTLVTVSS VL: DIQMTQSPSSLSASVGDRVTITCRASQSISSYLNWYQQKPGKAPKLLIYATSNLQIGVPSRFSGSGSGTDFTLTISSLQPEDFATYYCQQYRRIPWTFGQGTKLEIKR = 7.30
• AB200-(2Vk30)_R2-VH-v71 (Fab, V domains shown) VH: QVQLVQSGAEVKKPGSSVKVSCKASGGTFSNYWIHWVRQAPGQGLEWMGATYRIHSDTNYNEKFKSRVTITADKSTSTAYMELSSLRSEDTAVYYCARGAIFHGYDVIDNWGQGTLVTVSS VL: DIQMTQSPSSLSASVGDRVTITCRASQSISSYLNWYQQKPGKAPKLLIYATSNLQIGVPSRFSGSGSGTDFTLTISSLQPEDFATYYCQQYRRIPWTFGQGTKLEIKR = 7.53
